Tested on: Klebsiella pneumoniae BC 6
testProtocol: serial dilution test in the microtiter system (MIC)
Type: cell-based
experimentalParameters: BC6, Kl. pneum. BC 6, 37° C., 18 to 20 hours, read-out: MIC
experimentalEndpoint: MIC (µg/mL)
Numbers only, in µg/mL.

Answered cases to consult:
{"columns": ["smilesEntry", "MIC (µg/mL)"],
 "data": [
  ["NC(=O)CCn1nnnc1SCC1=C(C(=O)O)N2C(=O)[C@@H](NC(=O)[C@H](NC(=O)Nc3cnc(NCc4ccc(S(N)(=O)=O)s4)nc3O)c3ccc(O)cc3)[C@H]2SC1", 0.25],
  ["NS(=O)(=O)c1ccc(CNc2ncc(NC(=O)N[C@@H](C(=O)N[C@@H]3C(=O)N4C(C(=O)O)=C(CSc5nnnn5CCO)CS[C@H]34)c3ccc(O)cc3)c(O)n2)s1", 0.25],
  ["CS(=O)(=O)CCn1nnnc1SCC1=C(C(=O)O)N2C(=O)[C@@H](NC(=O)[C@H](NC(=O)Nc3cnc(NCc4ccco4)nc3O)c3ccc(O)cc3)[C@H]2SC1", 0.5]
]}

Given the entry O=C(Nc1cnc(NCc2cccnc2)nc1O)N[C@@H](C(=O)N[C@@H]1C(=O)N2C(C(=O)O)=C(CSc3nnnn3CCO)CS[C@H]12)c1ccc(O)cc1 , report its measured MIC.
0.5

Measured values drawn from patent US4401667A for this set.
